Items are presented alongside their recorded melting point.
State the answer as a number, implicitly in °C.

// known answers, use as guide
{"compound": "Nc1cccc(-c2nonc2NC(=O)c2cccc(F)c2)c1 [Compound 62]", "melting point [°C]": 163}
{"compound": "Cc1cccc(C(=O)Nc2nonc2-c2ccc(Cl)cc2)c1 [Compound 47]", "melting point [°C]": 165}
{"compound": "COc1ccc(C(=O)Nc2nonc2-c2cccc([N+](=O)[O-])c2)cc1Cl [Compound 54]", "melting point [°C]": 248}

// lookup melting point for CCOc1cc(-c2nonc2NC(=O)c2cccc(C)c2)ccc1OC [Compound 51]
280

Entry under review: CCOc1ccc(-c2nonc2NC(=O)c2cccc(C)c2)cc1OC [Compound 52] . Reported melting point?
260

---

Response field label takes True when melting point is strictly below 200 °C and False in all other cases.

Take a look at these entries with their results.
{"compound": "Nc1ccc(-c2nonc2NC(=O)c2ccccc2)cc1 [Compound 55]", "class": "True"}
{"compound": "Cc1cccc(C(=O)Nc2nonc2-c2ccc(N)cc2)c1 [Compound 56]", "class": "True"}
{"compound": "Nc1ccc(-c2nonc2NC(=O)c2cccc(F)c2)cc1 [Compound 57]", "class": "True"}

# TODO verify melting point < 200 °C strictly for this compound: COc1ccc(C(=O)Nc2nonc2-c2ccc(N)cc2)cc1Cl [Compound 59]
False

# check: melting point < 200 °C for Cc1cccc(C(=O)Nc2nonc2-c2cccc(N)c2)c1 [Compound 61]
True

In the record for O=C(Nc1nonc1-c1ccc(Cl)cc1)c1cccc(F)c1 [Compound 46] , is melting point less than 200 °C?
True

Hi there! Is melting point for COc1ccc(C(=O)Nc2nonc2-c2ccc([N+](=O)[O-])cc2)cc1Cl [Compound 53] below 200 °C, do you know?
False

Dear colleague, could you confirm whether melting point of O=C(Nc1nonc1-c1cccc([N+](=O)[O-])c1)c1ccccc1 [Compound 41] falls below 200 °C? Thanks.
True

Each recorded value in this set is attributed to paper PMC10572347.
